Sourced from the supplement of paper PMC10567573

test: protein stability index of a GFP-peptide fusion (GPS, HEK-293T) (PSI 1-6); higher = more stable; conditions: treatment: MLN4924 1 uM, 8 h; c terminus: a fixed tail appended;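 further: 24-mer peptide tiles fused after GFP, lentivirally expressed, FACS-sorted into six equal bins by GFP/DsRed ratio, decoded by Illumina sequencing, PSI is the read-weighted mean bin number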
Returns one of True or False; True when protein stability index is >= 3.

Dear colleague, could you confirm whether GSAGRLLAVGTDLYGQRNSAPEQE [GFOD1] has protein stability index at or above 3?
True

Dear colleague, could you confirm whether LRLLVESDINSIRRILDELTLCKS [KRT34] has protein stability index at or above 3?
False

Dear colleague, could you confirm whether NNQITCRNGQWSEPPKCLDPCVIS [CFHR2] has protein stability index at or above 3?
True

Dear colleague, could you confirm whether RQAELAIERCIFPERIYQGSSGSY [PI4K2A] has protein stability index at or above 3?
False

Dear colleague, could you confirm whether MFPLHLAALNAHSDCCRKLLSSGF [ANKRD44] has protein stability index at or above 3?
False

Dear colleague, could you confirm whether FVEYCDVNNDKSISVQELMGCLGV [SMOC2] has protein stability index at or above 3?
False

Dear colleague, could you confirm whether KEMTQKLEALHLEALCEEDLLLWI [DENND6A] has protein stability index at or above 3?
False

Dear colleague, could you confirm whether KTRRKTSARDASPTPSTDAEYPAN [NCK2] has protein stability index at or above 3?
True

Dear colleague, could you confirm whether EHKSLESLADGGSASPIKDQPVMA [FANCE] has protein stability index at or above 3?
True

Dear colleague, could you confirm whether QGTARTLSPVLESPRDLQFSEIRE [TNXB] has protein stability index at or above 3?
True

Dear colleague, could you confirm whether AEGALEEVPLEVLRQRESKWLDML [TBC1D10A] has protein stability index at or above 3?
True

Dear colleague, could you confirm whether LVAEVPKEHWTPEGHSIVGFAMYY [SAT1] has protein stability index at or above 3?
False

Dear colleague, could you confirm whether PYPASKADIPSVAFSSRLGGSRGA [DCAF4] has protein stability index at or above 3?
True

Dear colleague, could you confirm whether CRDLVDEAKNYLLLPQERPLMQGP [KLHL20] has protein stability index at or above 3?
False

Dear colleague, could you confirm whether EGKAPIISGVTKAISSPTVSRLTD [TPPP] has protein stability index at or above 3?
True

Dear colleague, could you confirm whether WEWSPAGLQSYQQALLRISLDKVQ [SERTAD3] has protein stability index at or above 3?
False

Dear colleague, could you confirm whether NSLAALDLSGIQTSDAAFLTQWKD [ZER1] has protein stability index at or above 3?
True

Dear colleague, could you confirm whether QPSGMKEGVKRYEQEHAAIQDKLF [CHCHD6] has protein stability index at or above 3?
True

Dear colleague, could you confirm whether AEKSGEATDGARPQALPEPMQESK [CHGA] has protein stability index at or above 3?
True

Dear colleague, could you confirm whether LTADSRKSHLIFPQPNYADTLISQ [PCDHGA10] has protein stability index at or above 3?
True

Dear colleague, could you confirm whether VQDKTPLYSQLLQAYKWSNKLQYH [MED27] has protein stability index at or above 3?
False

Dear colleague, could you confirm whether DPSNRSFFSEIISSVSDVKFSHSG [PPP2R2C] has protein stability index at or above 3?
True

Dear colleague, could you confirm whether DYLSGVLILASELSRLSVNSVTAG [TSN] has protein stability index at or above 3?
False

Dear colleague, could you confirm whether FKDLNESLNALEDQDLDALMADLV [APBB1IP] has protein stability index at or above 3?
True

Dear colleague, could you confirm whether EAMFCDFPKINHGILYDEEKYKPF [CFHR2] has protein stability index at or above 3?
False

Dear colleague, could you confirm whether AKKKRLTKADIGTPSNFQHIGHVG [WASL] has protein stability index at or above 3?
True

Dear colleague, could you confirm whether QSKTASDKSPSTVRDQGPSIPLTP [FBF1] has protein stability index at or above 3?
True

Dear colleague, could you confirm whether EVHERNDGIDPFPLLMNRQRVPKV [EFHC1] has protein stability index at or above 3?
True

Dear colleague, could you confirm whether SGRTQAQTRRASALIDRPAPYFER [EPB41L3] has protein stability index at or above 3?
True

Dear colleague, could you confirm whether SHSCYHDTRSGFWYVCRTQGVEGD [TRIM35] has protein stability index at or above 3?
False

Dear colleague, could you confirm whether ACGDAFTVAIGAESEVYSWGKGAR [NEK8] has protein stability index at or above 3?
False

Dear colleague, could you confirm whether NQHCLDTAFNFFKMAVSRHLTRGR [BRF1] has protein stability index at or above 3?
False

Dear colleague, could you confirm whether SRRSYDDQLRSGSPPKSPRTTVHD [DNAJC4] has protein stability index at or above 3?
True

Dear colleague, could you confirm whether TSTGFDRHTSPVFSPANPESSMED [BCL2L13] has protein stability index at or above 3?
True

Dear colleague, could you confirm whether RITITESNMKSRYTTEFHELEKIG [WEE1] has protein stability index at or above 3?
True

Dear colleague, could you confirm whether CPECYPDNPANRSLVLPWSFPLEW [TOR1AIP2] has protein stability index at or above 3?
False

Dear colleague, could you confirm whether QCKDALEIYKRFLTRMTRVSEFLK [SNAP91] has protein stability index at or above 3?
False

Dear colleague, could you confirm whether QLELRAGAERLDALLADEERCLSC [TRADD] has protein stability index at or above 3?
True

Dear colleague, could you confirm whether TRSKSDPVLHPSEERAAPVLSCEA [FAM189A2] has protein stability index at or above 3?
True

Dear colleague, could you confirm whether NTRVRELAQAAGFAPQTGARPSET [DNAAF3] has protein stability index at or above 3?
True

Dear colleague, could you confirm whether MKMEEAVGKVEELIESEAPPKASE [C18orf25] has protein stability index at or above 3?
True

Dear colleague, could you confirm whether IRDQMQQQLNDYEQLLDVKLALDM [LMNB1] has protein stability index at or above 3?
True

Dear colleague, could you confirm whether SVYVKLAGEREDLWAGSKGKEFGY [MIA2] has protein stability index at or above 3?
False

Dear colleague, could you confirm whether EKVNEGKYRSYEEFKADAQLLLHN [ZMYND11] has protein stability index at or above 3?
True

Dear colleague, could you confirm whether ESHATLTLAQAHFNNGEYAEAEAL [TTC32] has protein stability index at or above 3?
True

Dear colleague, could you confirm whether VRCGLLGSLGPVPVLRFDALWQVL [TRIM14] has protein stability index at or above 3?
False

Dear colleague, could you confirm whether FTLGDCDVIQALDLSVPLMDVGET [FKBP8] has protein stability index at or above 3?
True

Dear colleague, could you confirm whether NKHLFYAEDFSTMDEISEKLKKGI [MATN2] has protein stability index at or above 3?
True
